- System: NCI-H226 (Mesothelioma)
- test-summary: combination Emax (second highest fraction inhibited in the dose matrix, 72 h); higher = more inhibition; extreme values may be limits of the assay
Below, each entry is listed alongside its reported combination Emax.
// return a plain number; no unit text

Observe how each entry below is paired with its result.
[
  {
    "compound": "CCc1c2c(nc3ccc(O)cc13)-c1cc3c(c(=O)n1C2)COC(=O)[C@]3(O)CC [SN-38] + CN(C)CCCOc1ccc(-c2ccc3ncc4c(c3c2)n(C2CCOCC2)c(=O)n4C)cn1 [AZD0156] (first compound max 0.3 µM, 7x7, partner max 1 µM)",
    "target-entity": "NCI-H226 (Mesothelioma)",
    "combination Emax": 0.337
  },
  {
    "compound": "COc1nnc2ccc(N3CCC(c4ccc(OCCN5CCN(C)C(=O)[C@H]5C)cc4)CC3)nn12 [AZD5153] + CC1(C)CCC(CN2CCN(c3ccc(C(=O)NS(=O)(=O)c4ccc(NCC5CCOCC5)c([N+](=O)[O-])c4)c(Oc4cnc5[nH]ccc5c4)c3)CC2)=C(c2ccc(Cl)cc2)C1 [Venetoclax] (first compound max 1 µM, 7x7, partner max 1 µM)",
    "target-entity": "NCI-H226 (Mesothelioma)",
    "combination Emax": 0.438
  },
  {
    "compound": "NC1(C(=O)N[C@@H](CCO)c2ccc(Cl)cc2)CCN(c2ncnc3[nH]ccc23)CC1 [Capivasertib] + CC(=O)c1c(C)c2cnc(Nc3ccc(N4CCNCC4)cn3)nc2n(C2CCCC2)c1=O [Palbociclib] (first compound max 10 µM, 7x7, partner max 10 µM)",
    "target-entity": "NCI-H226 (Mesothelioma)",
    "combination Emax": 0.3
  }
]

Could you now consider this next compound?
Query: # query: combination Emax of entry Cn1cnc2c(F)c(Nc3ccc(Br)cc3Cl)c(C(=O)NOCCO)cc21 [Selumetinib] + C=CCn1c(=O)c2cnc(Nc3ccc(N4CCN(C)CC4)cc3)nc2n1-c1cccc(C(C)(C)O)n1 [AZD1775] (first compound max 10 µM, partner max 1 µM)
Response: 0.145

====

- Tested on: OAW-28 (Ovarian Carcinoma)
- test-summary: combination Emax (second highest fraction inhibited in the dose matrix, 72 h); higher = more inhibition; extreme values may be limits of the assay
Below, each entry is listed alongside its reported combination Emax.
// return a plain number; no unit text

[
  {
    "molecule": "CC(=O)Nc1cccc(-n2c(=O)n(C3CC3)c(=O)c3c(Nc4ccc(I)cc4F)n(C)c(=O)c(C)c32)c1 [Trametinib] + Cc1nc(-c2cn3c(n2)-c2ccc(-c4cnn(C(C)(C)C(N)=O)c4)cc2OCC3)n(C(C)C)n1 [Taselisib] (first compound max 1 µM, 7x7, partner max 10 µM)",
    "target-entity": "OAW-28 (Ovarian Carcinoma)",
    "combination Emax": 0.589
  }
]

Could you now consider this next molecule?
Query: # query: combination Emax of entry Cc1cc2ncnn2cc1Nc1ncc2c(n1)n(C1CCOCC1)c(=O)n2C [AZD7648] + C[C@@H]1COCCN1C2=NC(=NC(=C2)C3(CC3)[S@](=N)(=O)C)C4=C5C=CNC5=NC=C4 [AZD6738] (first compound max 10 µM, 7x7, partner max 10 µM)
Response: 0.42

====

Below, each entry is listed alongside its reported combination Emax.
- System: UACC-257 (Melanoma)
- test-summary: combination Emax (second highest fraction inhibited in the dose matrix, 72 h); higher = more inhibition; extreme values may be limits of the assay

Observe how each entry below is paired with its result.
[
  {
    "compound": "CN(CCO)CC[C@H](CSc1ccccc1)Nc1ccc(S(=O)(=O)NC(=O)c2ccc(N3CCC([C@@H](O)c4ccccc4-c4ccc(Cl)cc4)CC3)cc2)cc1S(=O)(=O)C(F)(F)F [AZD4320] + CN(C)CCCOc1ccc(-c2ccc3ncc4c(c3c2)n(C2CCOCC2)c(=O)n4C)cn1 [AZD0156] (first compound max 1 µM, 7x7, partner max 1 µM)",
    "combination Emax": 0.141
  },
  {
    "compound": "CN(CCO)CC[C@H](CSc1ccccc1)Nc1ccc(S(=O)(=O)NC(=O)c2ccc(N3CCC([C@@H](O)c4ccccc4-c4ccc(Cl)cc4)CC3)cc2)cc1S(=O)(=O)C(F)(F)F [AZD4320] + C=CCn1c(=O)c2cnc(Nc3ccc(N4CCN(C)CC4)cc3)nc2n1-c1cccc(C(C)(C)O)n1 [AZD1775] (first compound max 1 µM, partner max 1 µM)",
    "combination Emax": 0.103
  },
  {
    "compound": "CC1(C)CCC(CN2CCN(c3ccc(C(=O)NS(=O)(=O)c4ccc(NCC5CCOCC5)c([N+](=O)[O-])c4)c(Oc4cnc5[nH]ccc5c4)c3)CC2)=C(c2ccc(Cl)cc2)C1 [Venetoclax] + C[C@@H](Nc1cc(F)cc(F)c1)c1cc(C(=O)N(C)C)cc2c(=O)cc(N3CCOCC3)oc12 [AZD8186] (first compound max 1 µM, 7x7, partner max 3 µM)",
    "combination Emax": 0.121
  },
  {
    "compound": "Cn1cnc2c(F)c(Nc3ccc(Br)cc3Cl)c(C(=O)NOCCO)cc21 [Selumetinib] + C[C@@H]1COCCN1C2=NC(=NC(=C2)C3(CC3)[S@](=N)(=O)C)C4=C5C=CNC5=NC=C4 [AZD6738] (first compound max 10 µM, 7x7, partner max 10 µM)",
    "combination Emax": 0.595
  },
  {
    "compound": "CCc1c2c(nc3ccc(O)cc13)-c1cc3c(c(=O)n1C2)COC(=O)[C@]3(O)CC [SN-38] + O=C(c1cc(Cc2n[nH]c(=O)c3ccccc23)ccc1F)N1CCN(C(=O)C2CC2)CC1 [Olaparib] (first compound max 0.3 µM, 7x7, partner max 10 µM)",
    "combination Emax": 0.343
  }
]

Could you now consider this next compound?
Query: # query: combination Emax of entry COc1nnc2ccc(N3CCC(c4ccc(OCCN5CCN(C)C(=O)[C@H]5C)cc4)CC3)nn12 [AZD5153] + C=CCn1c(=O)c2cnc(Nc3ccc(N4CCN(C)CC4)cc3)nc2n1-c1cccc(C(C)(C)O)n1 [AZD1775] (first compound max 1 µM, partner max 1 µM)
Response: 0.359

====

- Test system: DBTRG-05MG (Glioblastoma);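 note: after 72 h of two-drug dosing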
- test-summary: Bliss excess, mean over the matrix (fraction); higher = more synergy
Below, each entry is listed alongside its reported Bliss excess.

Observe how each entry below is paired with its result.
[
  {
    "compound": "Cc1cc2ncnn2cc1Nc1ncc2c(n1)n(C1CCOCC1)c(=O)n2C [AZD7648] + C=CCn1c(=O)c2cnc(Nc3ccc(N4CCN(C)CC4)cc3)nc2n1-c1cccc(C(C)(C)O)n1 [AZD1775] (first compound max 10 µM, partner max 1 µM)",
    "value-type": "Bliss excess",
    "val": 0.0039
  },
  {
    "compound": "Cn1cnc2c(F)c(Nc3ccc(Br)cc3Cl)c(C(=O)NOCCO)cc21 [Selumetinib] + CC(C)n1c(=O)n(C)c2cnc3cc(F)c(-c4ccc(OCCCN5CCCCC5)nc4)cc3c21 [AZD1390] (first compound max 10 µM, 7x7, partner max 0.3 µM)",
    "value-type": "Bliss excess",
    "val": 0.0213
  }
]

Could you now consider this next compound?
Query: Recall the recorded Bliss excess for COc1nnc2ccc(N3CCC(c4ccc(OCCN5CCN(C)C(=O)[C@H]5C)cc4)CC3)nn12 [AZD5153] + CC1(C)CCC(CN2CCN(c3ccc(C(=O)NS(=O)(=O)c4ccc(NCC5CCOCC5)c([N+](=O)[O-])c4)c(Oc4cnc5[nH]ccc5c4)c3)CC2)=C(c2ccc(Cl)cc2)C1 [Venetoclax] (first compound max 1 µM, 7x7, partner max 1 µM) with DBTRG-05MG (Glioblastoma) and state it.
Response: -0.0832

====

- System: CL-11 (Colorectal Carcinoma)
- test-summary: combination Emax (second highest fraction inhibited in the dose matrix, 72 h); higher = more inhibition; extreme values may be limits of the assay
value-type: combination Emax
// return a plain number; no unit text

[
  {
    "molecule": "Cc1cc2ncnn2cc1Nc1ncc2c(n1)n(C1CCOCC1)c(=O)n2C [AZD7648] + C[C@@H]1COCCN1C2=NC(=NC(=C2)C3(CC3)[S@](=N)(=O)C)C4=C5C=CNC5=NC=C4 [AZD6738] (first compound max 10 µM, 7x7, partner max 10 µM)",
    "combination Emax": 0.767
  },
  {
    "molecule": "CCc1c2c(nc3ccc(O)cc13)-c1cc3c(c(=O)n1C2)COC(=O)[C@]3(O)CC [SN-38] + CN(C)CCCOc1ccc(-c2ccc3ncc4c(c3c2)n(C2CCOCC2)c(=O)n4C)cn1 [AZD0156] (first compound max 0.3 µM, 7x7, partner max 1 µM)",
    "combination Emax": 0.764
  },
  {
    "molecule": "COc1cccc2c1C(=O)c1c(O)c3c(c(O)c1C2=O)C[C@@](O)(C(=O)CO)C[C@@H]3O[C@H]1C[C@H](N)[C@H](O)[C@H](C)O1 [Doxorubicin] + Cc1cc2ncnn2cc1Nc1ncc2c(n1)n(C1CCOCC1)c(=O)n2C [AZD7648] (first compound max 1 µM, 7x7, partner max 10 µM)",
    "combination Emax": 0.602
  }
]

Query: # query: combination Emax of entry COc1cccc(OCCCN)c1-c1cc(Nc2cnc(C#N)cn2)n[nH]1 [Prexasertib] + C=CCn1c(=O)c2cnc(Nc3ccc(N4CCN(C)CC4)cc3)nc2n1-c1cccc(C(C)(C)O)n1 [AZD1775] (first compound max 1 µM, partner max 1 µM)
Response: 0.834
